Assay: Plasma pharmacokinetics of dasatinib in study patients
Details: human, plasma, oral

compound	half-life
Cc1nc(Nc2ncc(C(=O)Nc3c(C)cccc3Cl)s2)cc(N2CCN(CCO)CC2)n1 [Dasatinib]	168 min

* * *

Test: Plasma pharmacokinetics of ATRA in study patients
Type: in vivo
Details: human, oral, 22.5 mg/m2

compound	unit-string	clearance
CC1=C(/C=C/C(C)=C/C=C/C(C)=C/C(=O)O)C(C)(C)CCC1 [ATRA, all-trans retinoic acid]	mL/min	737

* * *

Assay: Plasma pharmacokinetics of dasatinib in study patients
Settings: human, plasma, oral
measurement-label: Vd (L)

1. Cc1nc(Nc2ncc(C(=O)Nc3c(C)cccc3Cl)s2)cc(N2CCN(CCO)CC2)n1 1900

* * *

Assay: Plasma pharmacokinetics of dasatinib in study patients
Conditions: human, plasma, oral, 100 mg
measurement-label: AUC(0-t)

compound	observed
Cc1nc(Nc2ncc(C(=O)Nc3c(C)cccc3Cl)s2)cc(N2CCN(CCO)CC2)n1 [Dasatinib]	373 ng·h/mL

* * *

Test: Plasma pharmacokinetics of dasatinib in study patients
Details: human, plasma, oral, 100 mg, Tmax, dasatinib 100 mg, with ATRA, mean (SD), N=3
measurement-label: Tmax (h)

1. Cc1nc(Nc2ncc(C(=O)Nc3c(C)cccc3Cl)s2)cc(N2CCN(CCO)CC2)n1 2.5

* * *

Assay: Plasma pharmacokinetics of ATRA in study patients
Assay type: in vivo
Settings: human, oral, 22.5 mg/m2

molecule	Tmax / h
CC1=C(/C=C/C(C)=C/C=C/C(C)=C/C(=O)O)C(C)(C)CCC1 [ATRA, all-trans retinoic acid]	1.6

* * *

Assay: Plasma pharmacokinetics of dasatinib in study patients
Conditions: human, plasma, oral
measurement-label: clearance (mL/min)

1. Cc1nc(Nc2ncc(C(=O)Nc3c(C)cccc3Cl)s2)cc(N2CCN(CCO)CC2)n1 6750

* * *

Assay: Plasma pharmacokinetics of dasatinib in study patients
Details: human, plasma, oral, 70 mg
measurement-label: clearance (mL/min)

1) Cc1nc(Nc2ncc(C(=O)Nc3c(C)cccc3Cl)s2)cc(N2CCN(CCO)CC2)n1 8170

* * *

Experiment: Plasma pharmacokinetics of dasatinib in study patients
Details: human, plasma, oral, 70 mg
measurement-label: AUC(0-t) (ng·h/mL)

1) Cc1nc(Nc2ncc(C(=O)Nc3c(C)cccc3Cl)s2)cc(N2CCN(CCO)CC2)n1 178

* * *

Test: Plasma pharmacokinetics of ATRA in study patients
Assay type: in vivo
Conditions: human, oral, 22.5 mg/m2

compound	unit-string	half-life
CC1=C(/C=C/C(C)=C/C=C/C(C)=C/C(=O)O)C(C)(C)CCC1 [ATRA, all-trans retinoic acid]	min	48.6

* * *

Assay: Plasma pharmacokinetics of dasatinib in study patients
Conditions: human, plasma, oral, 70 mg
measurement-label: half-life

1. Cc1nc(Nc2ncc(C(=O)Nc3c(C)cccc3Cl)s2)cc(N2CCN(CCO)CC2)n1 2.9 h

* * *

Experiment: Plasma pharmacokinetics of dasatinib in study patients
Details: human, plasma, oral, 100 mg

compound	AUC(0-inf) [ng·h/mL]
Cc1nc(Nc2ncc(C(=O)Nc3c(C)cccc3Cl)s2)cc(N2CCN(CCO)CC2)n1 [Dasatinib]	434

* * *

Assay: Plasma pharmacokinetics of dasatinib in study patients
Conditions: human, plasma, oral, 100 mg
measurement-label: clearance (mL/min)

1) Cc1nc(Nc2ncc(C(=O)Nc3c(C)cccc3Cl)s2)cc(N2CCN(CCO)CC2)n1 3920

* * *

Assay: Plasma pharmacokinetics of ATRA in study patients
Type: in vivo
Conditions: human, oral, 22.5 mg/m2

compound	Cmax [ng/mL]
CC1=C(/C=C/C(C)=C/C=C/C(C)=C/C(=O)O)C(C)(C)CCC1 [ATRA, all-trans retinoic acid]	277
